This listing pairs compounds with measured pKi.
Target: human cathepsin B (Homo sapiens)
Assay: Inhibition of cathepsin B, fluorogenic substrate Z-Phe-Arg-AMC
Settings: KCa, cathepsin B, pH 5.5; catalytic (uncompetitive) inhibition constant
The value called pKi is obtained by taking minus log10 of the concentration in mol/L.

{"compound": "O=C(O)C=Cc1ccc(O)c(O)c1 [Caffeic acid, 3,4-dihydroxycinnamic acid]", "parameter_measured": "pKi", "measured_value": 4.09}
{"compound": "O=C(/C=C/c1ccc(O)c(O)c1)OCCc1ccccc1", "parameter_measured": "pKi", "measured_value": 3.85}

Turning now to a further record.
// query Identify pKi associated with the compound O=C(/C=C/c1ccc(O)c(O)c1)O[C@@H]1C[C@](O)(C(=O)O)C[C@@H](O)[C@H]1O
// result 2.92

* * *

Item-by-item account of pKi
Biological target: human cathepsin B (Homo sapiens, UniProt P07858)
Test: Inhibition of cathepsin B, fluorogenic substrate Z-Phe-Arg-AMC
Settings: KCa, cathepsin B, pH 7.4; catalytic (uncompetitive) inhibition constant
Remember the convention: pKi equals -log10 of concentration in molar.

{"compound": "O=C(O)C=Cc1ccc(O)c(O)c1 [Caffeic acid, 3,4-dihydroxycinnamic acid]", "pKi": 4.34}
{"compound": "O=C(/C=C/c1ccc(O)c(O)c1)OCCc1ccccc1", "pKi": 4.15}

// query Could you please provide reported pKi for O=C(/C=C/c1ccc(O)c(O)c1)O[C@@H]1C[C@](O)(C(=O)O)C[C@@H](O)[C@H]1O ? Thanks!
// result 4.04

* * *

Target: human cathepsin L (Homo sapiens)
Sequence (P07711 114-333): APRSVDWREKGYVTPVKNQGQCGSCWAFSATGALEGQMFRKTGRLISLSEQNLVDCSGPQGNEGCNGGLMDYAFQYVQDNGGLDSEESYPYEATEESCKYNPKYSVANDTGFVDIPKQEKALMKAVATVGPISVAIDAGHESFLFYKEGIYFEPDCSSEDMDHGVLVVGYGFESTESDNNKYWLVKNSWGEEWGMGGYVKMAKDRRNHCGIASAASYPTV
parameter_measured: IC50

Example cases with answers are listed next.
{"molecule": "O=C(O)C=Cc1ccc(O)c(O)c1 [Caffeic acid, 3,4-dihydroxycinnamic acid]", "target_under_test": "human cathepsin L (Homo sapiens)", "IC50": "> 1000 µM"}
{"molecule": "O=C(O)C=Cc1ccc(O)cc1O [2,4-Dihydroxy-cinnamic acid, 2,4-dihydroxycinnamic acid]", "target_under_test": "human cathepsin L (Homo sapiens)", "IC50": "930 µM"}

Next up:
// query Given the molecule O=C(O)CCc1ccc(O)c(O)c1 [Hydrocaffeic acid, 3-(3,4-Dihydroxyphenyl) propionic acid] , write its reported IC50.
// result > 1000 µM

* * *

Biological target: human cathepsin L (Homo sapiens)
Construct: made in house
Assay: Inhibition of cathepsin L, fluorogenic substrate Z-Leu-Arg-AMC
Format: biochemical
Conditions: pH 5.5; specific (competitive) inhibition constant; read-out: KSp, cathepsin L
Recorded pKi for the following molecules
// field semantics: pKi = negative decimal log of concentration (mol/L)

{"molecule": "O=C(/C=C/c1ccc(O)c(O)c1)OCCc1ccccc1 [Caffeic acid phenethyl ester, caffeic acid phenethyl ester]", "pKi": 3.92}

// query Item O=C(/C=C/c1ccc(O)c(O)c1)O[C@@H]1C[C@](O)(C(=O)O)C[C@@H](O)[C@H]1O [Chlorogenic acid, chlorogenic acid] : provide pKi
// result 3.48

// query For the molecule O=C(O)C=Cc1ccc(O)c(O)c1 [Caffeic acid, 3,4-dihydroxycinnamic acid] , give its measured pKi value.
// result 3.13

* * *

Biological target: human cathepsin B (Homo sapiens, UniProt P07858)
Assay: Inhibition of cathepsin B, fluorogenic substrate Z-Phe-Arg-AMC
Settings: KSp, cathepsin B, pH 5.5; specific (competitive) inhibition constant
parameter_measured: pKi
For clarity, pKi is expressed as the negative log10 of concentration in mol/L.

{"compound": "O=C(O)C=Cc1ccc(O)c(O)c1 [Caffeic acid, 3,4-dihydroxycinnamic acid]", "pKi": 3.57}

Moving on to the next compound.
// query Identify measured pKi obtained with human cathepsin B (Homo sapiens, UniProt P07858) for O=C(/C=C/c1ccc(O)c(O)c1)O[C@@H]1C[C@](O)(C(=O)O)C[C@@H](O)[C@H]1O .
// result 3.47

* * *

Molecular target: human cathepsin B (Homo sapiens, UniProt P07858)
Assay: Inhibition of cathepsin B, fluorogenic substrate Z-Phe-Arg-AMC
Details: KSp, cathepsin B, pH 7.4; specific (competitive) inhibition constant
Here, each record is paired with measured pKi data.
Please treat pKi as minus the base-10 logarithm of the molar concentration.

{"compound": "O=C(/C=C/c1ccc(O)c(O)c1)OCCc1ccccc1 [Caffeic acid phenethyl ester, caffeic acid phenethyl ester]", "pKi": 3.97}

// query Fill in pKi for record O=C(/C=C/c1ccc(O)c(O)c1)O[C@@H]1C[C@](O)(C(=O)O)C[C@@H](O)[C@H]1O [Chlorogenic acid, chlorogenic acid]
// result 4.04

* * *

Biological target: UniProt:P07858
Assay: Inhibition of cathepsin B, fluorogenic substrate Z-Phe-Arg-AMC
pIC50: −log10 of the molar value.
# reported pIC50; entries follow

Please review the following examples before continuing.
{"compound": "O=C(O)CCc1ccc(O)c(O)c1 [Hydrocaffeic acid, 3-(3,4-Dihydroxyphenyl) propionic acid]", "pIC50": "< 3.00"}
{"compound": "O=C(O)/C=C/c1ccccc1O [o-Coumaric acid]", "pIC50": "< 3.00"}

Now take the following compound into account.
// query Supply pIC50 value. Item: O=C(O)/C=C/c1ccccc1 [Cinnamic acid]
// result < 3.00
